System: CEM cells HIV-1 protection, formazan growth assay
ASSAY_REMARKS: NCI AIDS Antiviral Assay
RECORDED_METRIC: EC50

EC50 on CEM cells HIV-1 protection, formazan growth assay for CC1=C(O)C(=O)C2C(=O)C1C(C)C2c1ccc(C)cc1 (stereo not drawn) is > 251 µM

EC50 on CEM cells HIV-1 protection, formazan growth assay for `O=C1NC(=O)/C(=C\c2cccc([N+](=O)[O-])c2)N1` is > 200 µM

EC50 on CEM cells HIV-1 protection, formazan growth assay for CCC(NC1=NCCO1)c1cccs1 (stereo not drawn) is > 200 µM

###

System: CEM cells HIV-1 protection, formazan growth assay
ASSAY_REMARKS: NCI AIDS Antiviral Assay;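 active means compounds giving half or more protection of infected cells from virus-caused growth loss, again on retest; inactive means the rest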
Please state which outcome applies, choosing from yes for active, no for inactive

Query: Status in this test for `CCCCCNc1nonc1N` ?
Response: no

Query: Status in this test for `COC(=O)c1cc2c(c(C(=O)OC)c1O)C(=O)C=CC2=O` ?
Response: no

Query: Status in this test for COC(=O)c1ccccc1CC1Cc2c(C)ccc(C)c2C1=O (centres undefined) ?
Response: no

Query: Status in this test for `COc1cccc(-c2nc(-c3cnccn3)n(C/C=C/c3ccccc3)n2)c1` ?
Response: yes

###

Test system: CEM cells HIV-1 protection, formazan growth assay
ASSAY_REMARKS: NCI AIDS Antiviral Assay
COND: measured here: growth of uninfected CEM cells
Answer each item with its documented IC50.

CC(=O)OCC1OC(Nc2[nH]c(=O)n(C)c(=O)c2N=O)C(OC(C)=O)C(OC(C)=O)C1OC(C)=O (centres undefined) has a reported IC50 of > 200 µM

CCC(Oc1c2ccoc2c(OC)c2oc(=O)cc(O)c12)C(=O)O (centres undefined) has a reported IC50 of > 269 µM

Cc1cccc2c1CC(Cc1ccccc1C(=O)O)C2=O (centres undefined) has a reported IC50 of > 200 µM

`CNc1cc2oc(=O)cc(C)c2cc1C` has a reported IC50 of > 67.6 µM

`CC(=O)/C(=C/c1ccc(N(C)C)cc1)c1ccccc1` has a reported IC50 of > 19.5 µM

`COC(=O)CCNC(=O)OCc1ccccc1` has a reported IC50 of > 200 µM

`Nc1ncccc1N1C(=O)c2ccccc2C1=O` has a reported IC50 of > 200 µM

CC(CO)NNC(C)CO (centres undefined) has a reported IC50 of > 200 µM

`O=C1C(=O)N(c2ccc(Cl)cc2)C(=O)C(=O)C1c1nc2ccccc2s1` has a reported IC50 of > 18.6 µM

###

System: CEM cells HIV-1 protection, formazan growth assay
ASSAY_REMARKS: NCI AIDS Antiviral Assay
COND: measured here: growth of uninfected CEM cells
RECORDED_METRIC: IC50

CN(CCO)CC(O)Cn1cnc2c1c(=O)n(C)c(=O)n2C (stereo unspecified) (tested in a mixture with another compound) has a reported IC50 of > 200 µM

CC(C)CCCC(C)[C@H]1CC[C@H]2[C@@H]3CC[C@H]4C[C@@H](CCC=C(c5cc(Cl)c(OCc6ccc([N+](=O)[O-])cc6)c(C(=O)O)c5)c5cc(Cl)c(OCc6ccc([N+](=O)[O-])cc6)c(C(=O)O)c5)CC[C@]4(C)[C@H]3CC[C@]12C (stereo partly specified) has a reported IC50 of > 100 µM

O=C1CC2C3CC4CC(C3)CC2(C4)O1 (stereo unspecified) has a reported IC50 of > 200 µM

`N#CNC(N)=NCCO` has a reported IC50 of > 692 µM

`CN(C)CCNC(=O)c1cnn(C)c1[N+](=O)[O-]` has a reported IC50 of > 200 µM

`O=C1OC2(c3ccc(O)cc3Oc3cc(O)ccc32)c2ccccc21` has a reported IC50 of > 50.1 µM

O=c1n(-c2ccccc2)c(=O)n2n1C1C3C4CCC1C4(Cl)C32 (stereo unspecified) has a reported IC50 of > 40.7 µM

`CN(C)c1ccc(/C=N/N(Cc2ccccc2)c2ccccc2)cc1` has a reported IC50 of > 6.03 µM

`CC(=O)C(/C=N\C(N)=S)=C(\C)O` has a reported IC50 of > 200 µM

`Cc1ccc(-c2n[nH]c(Cc3nc(-c4ccc(C)cc4)n[nH]3)n2)cc1` has a reported IC50 of > 200 µM

`NC(=S)NN=C(C1CC1)C1CC1` has a reported IC50 of > 200 µM
